- ASSAY SYSTEM: HLA-B*4501 (human)
- ASSAY REMARKS: competition binding assay, purified HLA
- CONDITION SET: remark: other sources report otherwise
Assign IC50 to each entry below.
Answers are plain numbers, in nM.

[[record]]
binder = "GERLPQPPICTI [Her2/neu 938 GB…]"
test_value = 40


We next turn to a different binder, shown below.
Please look up its IC50: KETELRKVKV [Her2/neu 716 …]
1600

Reference for the values: patent EP1903056A2
